# target_desc: hGcgR (Homo sapiens, UniProt P47871)
# Sequence (P47871 26-477): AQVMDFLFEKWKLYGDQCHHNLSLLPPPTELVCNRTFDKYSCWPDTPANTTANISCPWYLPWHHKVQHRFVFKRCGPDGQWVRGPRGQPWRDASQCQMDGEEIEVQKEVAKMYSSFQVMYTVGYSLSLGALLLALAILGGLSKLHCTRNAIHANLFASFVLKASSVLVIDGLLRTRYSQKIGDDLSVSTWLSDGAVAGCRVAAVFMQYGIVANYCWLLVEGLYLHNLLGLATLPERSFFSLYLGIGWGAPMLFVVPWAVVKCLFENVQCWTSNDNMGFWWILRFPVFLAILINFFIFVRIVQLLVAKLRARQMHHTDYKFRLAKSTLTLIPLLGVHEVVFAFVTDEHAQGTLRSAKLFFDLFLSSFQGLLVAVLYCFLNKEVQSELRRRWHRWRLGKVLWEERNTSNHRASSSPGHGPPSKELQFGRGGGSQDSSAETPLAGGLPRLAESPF
# procedure_details: Functional cAMP activation in the presence of 0.1% casein (no HSA);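 for Relative cAMP EC50, hGcgR: intracellular cAMP rise after 30 min at 37 °C, read by HTRF against a cAMP standard curve, scaled from buffer only (0%) to maximal control ligand response (100%)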
# Format: cell-based
# condition_summary: in the presence of 0.1% casein (no HSA); geometric mean; read-out: Relative cAMP EC50, hGcgR
Starred links: 1 amine or outer side, 2 acyl side, 3 side chain; linkers in the order of their positions; H or OH if unused. Non-standard residues stand in square brackets, D forms with d. Groups on a side chain read outwards from the residue. No end group written: not given here. *: point of attachment. C18 diacid = O=C(O)CCCCCCCCCCCCCCCCC(=O)*; γGlu = O=C(O)[C@H](CCC(=O)[*:2])N[*:1]; αMe4Pal = C[C@](N)(Cc1ccncc1)C(=O)O; αMeY = C[C@](N)(Cc1ccc(O)cc1)C(=O)O; 4Pal = N[C@@H](Cc1ccncc1)C(=O)O; αMeL = CC(C)C[C@](C)(N)C(=O)O; Orn = NCCC[C@H](N)C(=O)O; AEEA = NCCOCCOCC(=O)O; Aib = CC(C)(N)C(=O)O
In this section we review reported pEC50 values for a set of substances.
By convention, pEC50 is the negative base-10 log of a molar concentration.

Please review the entries below; each comes with its answer.
1. H-Y[Aib]QGTFTSDFS[Orn][αMeL]LDKK([AEEA-AEEA-γGlu-C18 diacid])AQ[Aib]AFIEYLLE[Aib]GPSSGAPPPEGS-NH2 [Example 194]; 8.36
2. H-Y[Aib]QGTFTSDFS[Orn][αMeL]LDKK([AEEA-γGlu-C18 diacid])AQ[Aib]AFIEYLLEGGESSGAPPPGGS-NH2 [Example 161]; 8.32
3. Y[Aib]QGTFTSDFS[Orn][αMeL]LDKK([AEEA-γGlu-γGlu-C18 diacid])AQ[Aib]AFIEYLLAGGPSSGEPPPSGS-NH2 [Example 153]; 7.83
4. H-Y[Aib]QGTFTSD[4Pal]SQ[αMeL]LD[Orn]K([AEEA-γGlu-C18 diacid])AQ[αMe4Pal]AFIE[αMeY]LIA[Aib]GPSSGEPPPSGSEE-NH2 [Example 1099]; 8.46
5. Y[Aib]QGTFTSD[4Pal]SR[αMeL]LDKK([AEEA-γGlu-C18 diacid])AQ[αMe4Pal]AFIEYLIEGGESSGAPPPSGS-NH2 [Example 792]; 8.72

Report pEC50 for Y[Aib]QGTFTSD[4Pal]SQ[αMeL]LDKK([dE-γGlu-dE-C18 diacid])AQ[αMe4Pal]AFIEYLIE[Aib]GPSSGAPPPSGSEE-NH2 [Example 931] please. 7.91

----------
# target_desc: hGIPR (Homo sapiens)
# Sequence (P48546 22-466): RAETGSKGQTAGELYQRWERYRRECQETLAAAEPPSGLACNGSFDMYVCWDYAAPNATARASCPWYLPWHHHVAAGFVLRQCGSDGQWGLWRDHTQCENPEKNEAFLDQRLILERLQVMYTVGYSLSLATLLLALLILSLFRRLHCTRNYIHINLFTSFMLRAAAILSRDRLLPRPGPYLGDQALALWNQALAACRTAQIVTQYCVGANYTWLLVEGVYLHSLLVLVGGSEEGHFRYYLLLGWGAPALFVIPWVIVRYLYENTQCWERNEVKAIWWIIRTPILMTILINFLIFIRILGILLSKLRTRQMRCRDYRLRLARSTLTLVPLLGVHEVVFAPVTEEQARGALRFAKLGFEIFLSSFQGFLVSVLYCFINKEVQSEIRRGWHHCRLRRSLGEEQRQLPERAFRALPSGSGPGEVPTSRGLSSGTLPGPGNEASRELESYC
# procedure_details: Functional cAMP activation in the presence of 0.1% casein (no HSA);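 for Relative cAMP EC50, hGIPR: intracellular cAMP rise after 30 min at 37 °C read by HTRF against a standard curve, scaled between buffer alone (0%) and top control ligand concentration (100%), four-parameter fit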
# Format: cell-based
# condition_summary: read-out: Relative cAMP EC50, hGIPR
Starred links: 1 amine or outer side, 2 acyl side, 3 side chain; linkers in the order of their positions; H or OH if unused. Non-standard residues stand in square brackets, D forms with d. Groups on a side chain read outwards from the residue. No end group written: not given here. *: point of attachment. C18 diacid = O=C(O)CCCCCCCCCCCCCCCCC(=O)*; αMePhe(2-F) = C[C@](N)(Cc1ccccc1F)C(=O)O; γGlu = O=C(O)[C@H](CCC(=O)[*:2])N[*:1]; αMe4Pal = C[C@](N)(Cc1ccncc1)C(=O)O; αMeY = C[C@](N)(Cc1ccc(O)cc1)C(=O)O; 4Pal = N[C@@H](Cc1ccncc1)C(=O)O; αMeL = CC(C)C[C@](C)(N)C(=O)O; αMeS = C[C@](N)(CO)C(=O)O; Orn = NCCC[C@H](N)C(=O)O; AEEA = NCCOCCOCC(=O)O; Aib = CC(C)(N)C(=O)O
Labelling: EC50 reported below 0.01 nM becomes condition met; at or above becomes condition not met.

1. H-Y[Aib]QGT[αMePhe(2-F)]TSD[4Pal][αMeS]I[αMeL]LD[Orn]K([γGlu-γGlu-C18 diacid])AQ[Aib][Orn]FI[dE]YLIEGGPSSGEPPPSGTGE-NH2 [Example 523]; condition not met
2. H-Y[Aib]QGT[αMePhe(2-F)]TSD[4Pal]SILLDKK([γGlu-γGlu-C18 diacid])AQ[Aib]AFIEWLEEGGPSSGAPPPSGTE-NH2 [Example 549]; condition not met
3. H-Y[Aib]QGT[αMePhe(2-F)]TSD[4Pal][αMeS]ILLD[Orn]K([γGlu-γGlu-C18 diacid])AQ[Aib][Orn]FI[dE]YLIEGGPSSGEPPPEGTEEE-NH2 [Example 577]; condition not met
4. Y[Aib]QGT[αMePhe(2-F)]TSD[4Pal]SI[αMeL]LD[Orn]K([AEEA-γGlu-C18 diacid])AQ[αMe4Pal]EFI[dE][αMeY]LIEGGPSSGEPPPSGS-NH2 [Example 644]; condition met
5. H-Y[Aib]QGT[αMePhe(2-F)]TSD[4Pal][αMeS]I[αMeL]LD[Orn]K([γGlu-Glu-C18 diacid])AQ[Aib][Orn]FI[dE][αMeY]LSEGGPSSGEPPPSGTEE-NH2 [Example 566]; condition not met

State whether 0.01 nM exceeds EC50 recorded for Y[Aib]QGT[αMePhe(2-F)]TSD[4Pal][αMeS]ILLD[Orn]K([γGlu-γGlu-C18 diacid])AQ[Aib][Orn]FI[dE]YLIEGGPSSGEPPPEGGEE-NH2 [Example 605] . condition not met

Hello, I'm reviewing records and need to know if EC50 of H-Y[Aib]QGT[αMePhe(2-F)]TSD[4Pal]SI[αMeL]LD[Orn]K([γGlu-γGlu-C18 diacid])AQ[αMe4Pal][Orn]FI[dE][αMeY]LIEGGPSSGEPPPESE-NH2 [Example 685] is below 0.01 nM. Could you check? condition met

Report whether reported EC50 is lower than 0.01 nM (strictly) for H-Y[Aib]QGT[αMePhe(2-F)]TSD[4Pal][αMeS]I[αMeL]LD[Orn]K([AEEA-γGlu-C18 diacid])AQ[Aib][Orn]FI[dE][αMeY]LIEGGPSSGEPPPEGE-NH2 [Example 698] condition not met

# TODO verify EC50 < 0.01 nM strictly for this substance: H-Y[Aib]QGT[αMePhe(2-F)]TSD[4Pal]SILLD[Orn]K([γGlu-γGlu-C18 diacid])AQ[Aib]AFIEYLQEGGPSSGAPPPSGTEE-NH2 [Example 581] condition not met

----------
# target_desc: hGLP-1R (Homo sapiens)
# Sequence (P43220 24-463): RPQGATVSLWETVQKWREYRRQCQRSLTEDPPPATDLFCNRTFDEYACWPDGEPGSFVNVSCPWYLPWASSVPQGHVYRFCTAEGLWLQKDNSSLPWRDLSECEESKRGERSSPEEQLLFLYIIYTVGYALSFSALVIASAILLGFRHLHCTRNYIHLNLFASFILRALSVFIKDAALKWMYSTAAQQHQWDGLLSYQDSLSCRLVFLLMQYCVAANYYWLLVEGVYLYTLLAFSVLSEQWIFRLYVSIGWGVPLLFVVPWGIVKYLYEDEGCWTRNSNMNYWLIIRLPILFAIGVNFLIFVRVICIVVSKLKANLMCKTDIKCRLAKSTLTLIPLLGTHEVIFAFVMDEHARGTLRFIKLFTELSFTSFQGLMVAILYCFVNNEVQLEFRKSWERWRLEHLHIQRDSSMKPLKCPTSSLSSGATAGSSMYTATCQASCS
# procedure_details: Functional cAMP activation in the presence of 0.1% casein (no HSA);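 for Relative cAMP EC50, hGLP-1R: intracellular cAMP rise after 30 min at 37 °C read by HTRF, normalized between buffer only (0%) and maximal control ligand (100%), four-parameter variable-slope fit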
# Format: cell-based
# condition_summary: in the presence of 0.1% casein (no HSA); geometric mean; read-out: Relative cAMP EC50, hGLP-1R
Starred links: 1 amine or outer side, 2 acyl side, 3 side chain; linkers in the order of their positions; H or OH if unused. Non-standard residues stand in square brackets, D forms with d. Groups on a side chain read outwards from the residue. No end group written: not given here. *: point of attachment. C20 diacid = O=C(O)CCCCCCCCCCCCCCCCCCC(=O)*; C18 diacid = O=C(O)CCCCCCCCCCCCCCCCC(=O)*; γGlu = O=C(O)[C@H](CCC(=O)[*:2])N[*:1]; αMe4Pal = C[C@](N)(Cc1ccncc1)C(=O)O; αMeY = C[C@](N)(Cc1ccc(O)cc1)C(=O)O; 4Pal = N[C@@H](Cc1ccncc1)C(=O)O; αMeL = CC(C)C[C@](C)(N)C(=O)O; αMeS = C[C@](N)(CO)C(=O)O; Orn = NCCC[C@H](N)C(=O)O; Dap = NC[C@H](N)C(=O)O; AEEA = NCCOCCOCC(=O)O; Aib = CC(C)(N)C(=O)O
The substances listed here are annotated with their log10 of EC50.
Annotation: log10 of EC50, nM basis.

Look over these answered cases.
1. H-Y[Aib]QGTFTSDFSK[αMeL]LDKK([AEEA-AEEA-γGlu-C18 diacid])AQ[Aib]AFIEYLLEGGPSSGAPPPSGS-NH2 [Example 142]; 0.64
2. H-Y[Aib]QGTFTSD[4Pal][αMeS]Q[αMeL]LD[Orn]K([dE-γGlu-C18 diacid])AQ[αMe4Pal]QFIQ[αMeY]LIAGGPSSGEPPPSGGGE-NH2 [Example 1133]; -0.11
3. H-Y[Aib]QGTFTSD[4Pal]S[Orn][αMeL]LD[Orn]K([γGlu-γGlu-C18 diacid])AQ[αMe4Pal]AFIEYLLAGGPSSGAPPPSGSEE-NH2 [Example 1068]; 1.06
4. Y[Aib]QGTFTSDFS[Orn][αMeL]LDKK([AEEA-AEEA-γGlu-C18 diacid])AQ[Aib]AFIEYLLE[dA]GPSSGEPPPSEG-NH2 [Example 116]; 0.89
5. H-Y[Aib]QGTFTSDYSK[αMeL]LDKK([AEEA-γGlu-C20 diacid])AQQAFVQWLIEGGPSSGEPPPSEG-NH2 [Example 315]; -0.29
6. Y[Aib]QGTFTSDFS[Orn][αMeL]LDKK([AEEA-AEEA-γGlu-C18 diacid])AQ[Aib]AFIEYLLE[dA]GPSSGEPPPSGS-NH2 [Example 155]; 0.47

Recorded log10 of EC50 for H-Y[Aib]QGTFTSD[4Pal]SQ[αMeL]LDKK([AEEA-γGlu-C18 diacid])AQ[αMe4Pal]AFIEWLIEGGPSSGAPPPSGT-NH2 [Example 831] , please? -0.17

Recorded log10 of EC50 of H-Y[Aib]QGTFTSDFS[Dap][αMeL]LDKK([AEEA-γGlu-C18 diacid])AQ[Aib]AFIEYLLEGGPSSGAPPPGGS-NH2 [Example 68] , please. 0.49

Given Y[Aib]QGTFTSD[4Pal]SQ[αMeL]LDKK([γGlu-γGlu-C18 diacid])AQ[αMe4Pal]AFIEYLIE[Aib]GPSSGAPPPSGS-NH2 [Example 858] , state its recorded log10 of EC50. 0.26
